# Measurement Description: Quantitative High-Throughput drug screen in 47 multiple myeloma cell lines against the NCATS MIPE library collection: MMM1_PLB cell viability assay (AID 1918976); further: nearly all actives have a fitted effect of over 35% in size; further: potency means the concentration at half of the fitted maximal effect
# Assay Setup: MMM1 myeloma cells viability, CellTiter-Glo, 48 h; series mostly up to 45.8 µM
Records with an inconclusive call do not appear. Calls of active or inactive are those of the source. The call rests on the fitted dose curve; in most records, active means well fitted cell-killing curve with a large enough effect; inconclusive means small, poorly fitted or top-dose-only effect, or effect the other way; inactive means no such curve, though single readings can be large or run the other way.

{"Compound": "NS(=O)(=O)c1cc2c(cc1Cl)NCNS2(=O)=O", "Potency": "16.6 µM (active)"}
{"Compound": "CC(CCc1ccc(O)cc1)NCCc1ccc(O)c(O)c1 (stereo unspecified)", "Potency": "10.5 µM (active)"}
{"Compound": "COc1ccccc1N1CCN(CC(O)COc2cccc3ccccc23)CC1 (stereo unspecified)", "Potency": "6.62 µM (active)"}
{"Compound": "CN(C)CCCN1c2ccccc2CCc2ccc(Cl)cc21", "Potency": "20.9 µM (active)"}
{"Compound": "CC(C)(Oc1ccc(C2CC2(Cl)Cl)cc1)C(=O)O (stereo unspecified)", "Potency": "inactive"}
{"Compound": "CC1COc2c(N3CCN(C)CC3)c(F)cc3c(=O)c(C(=O)O)cn1c23 (stereo unspecified)", "Potency": "11.8 µM (active)"}
{"Compound": "NC12CC3CC(CC(C3)C1)C2", "Potency": "inactive"}
{"Compound": "O=C(Nc1ccc([N+](=O)[O-])cc1Cl)c1cc(Cl)ccc1O", "Potency": "0.743 µM (active)"}
{"Compound": "Cc1ccc(C(=O)Nc2ccc(S(=O)(=O)O)c3cc(S(=O)(=O)O)cc(S(=O)(=O)O)c23)cc1NC(=O)c1cccc(NC(=O)Nc2cccc(C(=O)Nc3cc(C(=O)Nc4ccc(S(=O)(=O)O)c5cc(S(=O)(=O)O)cc(S(=O)(=O)O)c45)ccc3C)c2)c1", "Potency": "0.0372 µM (active)"}
{"Compound": "CN(Cc1cnc2nc(N)nc(N)c2n1)c1ccc(C(=O)N[C@@H](CCC(=O)O)C(=O)O)cc1", "Potency": "18.7 µM (active)"}
{"Compound": "CC#C[C@]1(O)CC[C@H]2[C@@H]3CCC4=CC(=O)CCC4=C3[C@@H](c3ccc(N(C)C)cc3)C[C@@]21C", "Potency": "4.18 µM (active)"}

----------
# Measurement Description: Quantitative High-Throughput drug screen in 47 multiple myeloma cell lines against the NCATS MIPE library collection: U266_ATCC cell viability assay (AID 1919864); further: nearly all actives have a fitted effect of over 35% in size
# Assay Setup: U266 myeloma viability, CellTiter-Glo ATP luminescence, 48 h; series mostly up to 45.8 µM
Results filed as inconclusive are left out. The source made the active and inactive calls. Calls come from the whole dose curve; as a rule, active = well fitted cell-killing curve with a large enough effect; inconclusive = small, poorly fitted or top-dose-only effect, or effect the other way; inactive = no such curve, though single readings can be large or run the other way.
Classes used: active, inactive

{"Compound": "CCCNCC(O)COc1ccccc1C(=O)CCc1ccccc1 (stereo unspecified)", "Label Value": "inactive"}
{"Compound": "O=C1c2c(O)ccc(O)c2C(=O)c2c(NCCNCCO)ccc(NCCNCCO)c21", "Label Value": "active"}
{"Compound": "COc1ccc2c(c1)c(CC(=O)O)c(C)n2C(=O)c1ccc(Cl)cc1", "Label Value": "active"}
{"Compound": "CN(C)CCCN1c2ccccc2CCc2ccc(Cl)cc21", "Label Value": "active"}
{"Compound": "CN1CCN(C2=Nc3cc(Cl)ccc3Nc3ccccc32)CC1", "Label Value": "inactive"}
{"Compound": "Cn1c(=O)c2c(ncn2C)n(C)c1=O", "Label Value": "inactive"}

----------
# Test system: P93_24
# Measurement Description: qHTS profiling for inhibitors of Plasmodium falciparum proliferation (AID 504749); further: nearly all actives have a fitted effect of over 60% in size; further: potency means the concentration at half of the fitted maximal effect
# Assay Setup: P. falciparum in erythrocytes, SYBR Green DNA, 72 h; series mostly up to 28.7 µM
Inconclusive results are not listed. Active and inactive are the calls of the source. Calls come from the whole dose curve; as a rule, active = well fitted inhibition curve with a large enough effect; inconclusive = small, poorly fitted or top-dose-only effect; inactive = flat fitted curve, though single readings scatter.

{"Compound": "Clc1ccc(C(c2ccccc2Cl)C(Cl)Cl)cc1 (configuration not stated)", "Potency": "inactive"}
{"Compound": "COc1cc2c(c(OC)c1OC)-c1ccc(OC)c(=O)cc1[C@@H](NC(C)=O)CC2", "Potency": "inactive"}
{"Compound": "CC(CCc1ccc(O)cc1)NCCc1ccc(O)c(O)c1 (configuration not stated)", "Potency": "inactive"}
{"Compound": "CC#C[C@]1(O)CC[C@H]2[C@@H]3CCC4=CC(=O)CCC4=C3[C@@H](c3ccc(N(C)C)cc3)C[C@@]21C", "Potency": "11.2 µM (active)"}
{"Compound": "CS(=O)(=O)CCNCc1ccc(-c2ccc3ncnc(Nc4ccc(OCc5cccc(F)c5)c(Cl)c4)c3c2)o1", "Potency": "inactive"}
{"Compound": "Cn1cnc2c1c(=O)[nH]c(=O)n2C", "Potency": "inactive"}
{"Compound": "CC12CC3CC(C)(C1)CC(N)(C3)C2", "Potency": "10 µM (active)"}
{"Compound": "Clc1ccc2nsnc2c1NC1=NCCN1", "Potency": "inactive"}
{"Compound": "Cc1ccc(C(=O)Nc2ccc(S(=O)(=O)O)c3cc(S(=O)(=O)O)cc(S(=O)(=O)O)c23)cc1NC(=O)c1cccc(NC(=O)Nc2cccc(C(=O)Nc3cc(C(=O)Nc4ccc(S(=O)(=O)O)c5cc(S(=O)(=O)O)cc(S(=O)(=O)O)c45)ccc3C)c2)c1", "Potency": "inactive"}
{"Compound": "CN1C(C(=O)Nc2ccccn2)=C(O)c2ccccc2S1(=O)=O", "Potency": "inactive"}
{"Compound": "Cc1cn([C@H]2C=C[C@@H](CO)O2)c(=O)[nH]c1=O", "Potency": "inactive"}
{"Compound": "CCCNCC(O)COc1ccccc1C(=O)CCc1ccccc1 (configuration not stated)", "Potency": "0.501 µM (active)"}
{"Compound": "CC1(CN2CCC(n3c(=O)[nH]c4ccccc43)CC2)OCc2ccccc2-n2cccc21 (configuration not stated)", "Potency": "11.2 µM (active)"}
{"Compound": "O=C(c1ccc(OCCN2CCCCC2)cc1)c1c(-c2ccc(O)cc2)sc2cc(O)ccc12", "Potency": "8.91 µM (active)"}
{"Compound": "CCOC(=O)C(C)(C)Oc1ccc(Cl)cc1", "Potency": "inactive"}
{"Compound": "CC[N+](CC)(CC)CCOc1cccc(OCC[N+](CC)(CC)CC)c1OCC[N+](CC)(CC)CC", "Potency": "inactive"}
{"Compound": "NC(=O)OCC(COC(N)=O)c1ccccc1", "Potency": "inactive"}
{"Compound": "NC12CC3CC(CC(C3)C1)C2", "Potency": "inactive"}
{"Compound": "COc1ccccc1OCC(O)CN1CCN(CC(=O)Nc2c(C)cccc2C)CC1 (configuration not stated)", "Potency": "inactive"}
{"Compound": "OCCN1CCN(CCCN2c3ccccc3Sc3ccc(C(F)(F)F)cc32)CC1", "Potency": "6.31 µM (active)"}
{"Compound": "COc1ccc2[nH]cc(CCNC(C)=O)c2c1", "Potency": "inactive"}
{"Compound": "Clc1ccccc1C(c1ccccc1)(c1ccccc1)n1ccnc1", "Potency": "0.126 µM (active)"}

----------
# Measurement Description: Quantitative High-Throughput drug screen in 47 multiple myeloma cell lines against the NCATS MIPE library collection: UTMC2_PLB cell viability assay (AID 1919868); further: nearly all actives have a fitted effect of over 55% in size
# Assay Setup: CellTiter-Glo ATP luminescence, 48 h; series mostly up to 45.8 µM
Records with an inconclusive call do not appear. Calls of active or inactive are those of the source. The call rests on the fitted dose curve; in most records, active means well fitted cell-killing curve with a large enough effect; inconclusive means small, poorly fitted or top-dose-only effect, or effect the other way; inactive means no such curve, though single readings can be large or run the other way.
Classes used: True (active), False (inactive)

{"Mol": "CN(Cc1cnc2nc(N)nc(N)c2n1)c1ccc(C(=O)N[C@@H](CCC(=O)O)C(=O)O)cc1", "Label Value": "True"}
{"Mol": "Cn1cnc2c1c(=O)[nH]c(=O)n2C", "Label Value": "True"}
{"Mol": "CC#C[C@]1(O)CC[C@H]2[C@@H]3CCC4=CC(=O)CCC4=C3[C@@H](c3ccc(N(C)C)cc3)C[C@@]21C", "Label Value": "True"}
{"Mol": "O=C(c1ccc(F)cc1)C1CCN(CCn2c(=O)[nH]c3ccccc3c2=O)CC1", "Label Value": "False"}
{"Mol": "C[C@](N)(Cc1ccc(O)c(O)c1)C(=O)O", "Label Value": "False"}
{"Mol": "Cc1cc(C(C)(C)C)cc(C)c1CC1=NCCN1", "Label Value": "False"}
{"Mol": "Clc1ccc2nsnc2c1NC1=NCCN1", "Label Value": "False"}
{"Mol": "CC[C@@]1(O)C(=O)OCc2c1cc1n(c2=O)Cc2cc3c(CN(C)C)c(O)ccc3nc2-1", "Label Value": "True"}
{"Mol": "Cn1c(=O)c2c(ncn2C)n(C)c1=O", "Label Value": "False"}

----------
# Measurement Description: qHTS for differential inhibitors of proliferation of Plasmodium falciparum line Dd2 (AID 1882); further: nearly all actives have a fitted effect of over 65% in size; further: potency means the concentration at half of the fitted maximal effect
# Assay Setup: Plasmodium falciparum Dd2 proliferation inhibition; series mostly up to 28.7 µM
# Description: NIH Molecular Libraries Probe Production Network [MLPCN] NIH National Institute of Allergy and Infectious Diseases [NIAID] NIH Chemical Genomics Center [NCGC] Assay Provider: Xinzhuan Su, NIAID Plasmodium falciparum is a virulent malarial parasite that kills 1-2 million people worldwide each year. […] Because mature erythrocytes lack DNA, only Plasmodium-derived DNA is detected. […]
Results filed as inconclusive are left out. The source made the active and inactive calls. The call rests on the fitted dose curve; in most records, active means well fitted inhibition curve with a large enough effect; inconclusive means small, poorly fitted or top-dose-only effect; inactive means flat fitted curve, though single readings scatter.
Quantity Measured: Potency

{"Compound": "CC(C)NCC(O)COc1ccc(CCOCC2CC2)cc1 (centres undefined)", "Quantity Measured": "Potency", "Value": "inactive"}
{"Compound": "COC(=O)Nc1nc2ccc(C(=O)c3cccs3)cc2[nH]1", "Quantity Measured": "Potency", "Value": "inactive"}
{"Compound": "CN1CCN2c3ccccc3Cc3ccccc3C2C1 (centres undefined)", "Quantity Measured": "Potency", "Value": "7.08 µM (active)"}
{"Compound": "Cn1c(=O)c2c(ncn2C)n(C)c1=O", "Quantity Measured": "Potency", "Value": "inactive"}
